B1: ATGL (PNPLA2, patatin-like phospholipase domain-containing protein 2), human, full length / perilipin-1, mouse (mPlin1) (parent)
chain 1: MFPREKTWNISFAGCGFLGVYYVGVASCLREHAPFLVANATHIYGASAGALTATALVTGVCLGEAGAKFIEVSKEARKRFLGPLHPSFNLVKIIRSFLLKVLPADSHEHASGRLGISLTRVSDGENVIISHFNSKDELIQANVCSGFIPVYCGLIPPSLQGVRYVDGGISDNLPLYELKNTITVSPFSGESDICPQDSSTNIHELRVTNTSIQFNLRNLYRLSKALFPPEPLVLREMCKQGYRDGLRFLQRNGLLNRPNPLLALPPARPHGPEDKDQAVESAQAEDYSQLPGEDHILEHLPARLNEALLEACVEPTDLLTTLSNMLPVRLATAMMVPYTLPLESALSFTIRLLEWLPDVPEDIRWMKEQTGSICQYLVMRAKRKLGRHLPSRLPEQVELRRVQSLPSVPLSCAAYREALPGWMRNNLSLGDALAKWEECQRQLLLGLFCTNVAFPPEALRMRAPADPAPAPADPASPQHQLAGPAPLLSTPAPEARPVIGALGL
chain 2: MSMNKGPTLLDGDLPEQENVLQRVLQLPVVSGTCECFQKTYNSTKEAHPLVASVCNAYEKGVQGASNLAAWSMEPVVRRLSTQFTAANELACRGLDHLEEKIPALQYPPEKIASELKGTISTRLRSARNSISVPIASTSDKVLGATLAGCELALGMAKETAEYAANTRVGRLASGGADLALGSIEKVVEFLLPPDKESAPSSGRQRTQKAPKAKPSLVRRVSTLANTLSRHTMQTTAWALKQGHSLAMWIPGVAPLSSLAQWGASAAMQVVSRRQSEVRVPWLHNLAASQDESHDDQTDTEGEETDDEEEEEESEAEENVLREVTALPNPRGLLGGVVHTVQNTLRNTISAVTWAPAAVLGTVGRILHLTPAQAVSSTKGRAMSLSDALKGVTDNVVDTVVHYVPLPRLSLMEPESEFRDIDNPSAEAERKGSGARPASPESTPRPGQPRGSLRSVRGLSAPSCPGLDDKTEASARPGFLAMPREKPARRVSDSFFRPSVMEPILGRAQYSQLRKKS

# Variants of: B1
# experimental protocol: LUMIER: Protein A-ATGL variant and firefly luciferase-partner co-expressed in HEK293T, lysates immunoprecipitated on IgG-coated plates, co-precipitated partner measured as luciferase luminescence
# particulars: with perilipin-1, mouse (mPlin1), transient co-transfection, IgG-coated LUMITRAC plates, 2 h at 4 °C, three PBS washes, Bright-Glo luciferase reagent, triplicates per assay, two …, parent: -0.37, not graded, scale: log2 fold change of co-immunoprecipitated luminescence relative to wild-type ATGL within each experiment
reported metric: screen value
// response body must contain only the number

Look up screen value: chain 1 E125L
-0.225
